# experiment.description: Half life at pH 1
# Format: ADME
# run.parameters: buffer
assay.metric: half-life (h)

- C[C@@]1(F)OC(n2cc(F)c(=O)[nH]c2=O)[C@H](O)[C@@H]1O (some centres not stated): 0.5
- C[C@H]1O[C@@H](n2cc(F)c(=O)[nH]c2=O)[C@H](O)[C@@H]1O: 250

----------
# experiment.description: Half life at pH 7.5
# Type: ADME
# run.parameters: buffer
assay.metric: half-life (min)

- C[C@@]1(F)OC(n2cc(F)c(=O)[nH]c2=O)[C@H](O)[C@@H]1O (stereo partly specified): 720
